tested on: Staphylococcus aureus H7; experiment: MIC / antibiotic susceptibility; assay type: cell-based; also: key: R: strain resistant to antibiotic concerned; S: strain sensitive to antibiotic concerned; L strain with intermediate resistance to antibiotic concerned
measurement_label: Susceptibility of strain to antibiotic

molecule_smiles: NC[C@H]1O[C@H](O[C@H]2[C@H](O)[C@@H](O[C@H]3O[C@H](CO)[C@@H](O)[C@H](N)[C@H]3O)[C@H](N)C[C@@H]2N)[C@H](N)C[C@@H]1O
Susceptibility of strain to antibiotic: S

molecule_smiles: CN[C@H](CC(C)C)C(=O)N[C@H]1C(=O)N[C@@H](CC(N)=O)C(=O)N[C@H]2C(=O)N[C@H]3C(=O)N[C@H](C(=O)N[C@H](C(=O)O)c4cc(O)cc(O)c4-c4cc3ccc4O)[C@H](O)c3ccc(c(Cl)c3)Oc3cc2cc(c3O[C@@H]2O[C@H](CO)[C@@H](O)[C@H](O)[C@H]2O[C@H]2C[C@](C)(N)[C@H](O)[C@H](C)O2)Oc2ccc(cc2Cl)[C@H]1O
Susceptibility of strain to antibiotic: S

molecule_smiles: CC(=O)O[C@H]1C[C@@]2(C)[C@@H](C[C@@H](O)[C@H]3[C@@]4(C)CC[C@@H](O)[C@@H](C)[C@@H]4CC[C@@]32C)/C1=C(\CCC=C(C)C)C(=O)O
Susceptibility of strain to antibiotic: S

molecule_smiles: CO[C@H]1/C=C/O[C@@]2(C)Oc3c(C)c(O)c4c(O)c(c(/C=N/N5CCN(C)CC5)c(O)c4c3C2=O)NC(=O)/C(C)=C\C=C\[C@H](C)[C@H](O)[C@@H](C)[C@@H](O)[C@@H](C)[C@H](OC(C)=O)[C@@H]1C
Susceptibility of strain to antibiotic: S

molecule_smiles: CC1(C)S[C@@H]2[C@H](NC(=O)Cc3ccccc3)C(=O)N2[C@H]1C(=O)O
Susceptibility of strain to antibiotic: R

molecule_smiles: CCn1cc(C(=O)O)c(=O)c2cc(F)c(N3CCNCC3)cc21
Susceptibility of strain to antibiotic: R

molecule_smiles: CC[C@H]1OC(=O)[C@H](C)[C@@H](O[C@H]2C[C@@](C)(OC)[C@@H](O)[C@H](C)O2)[C@H](C)[C@@H](O[C@@H]2O[C@H](C)C[C@H](N(C)C)[C@H]2O)[C@](C)(O)C[C@@H](C)C(=O)[C@H](C)[C@@H](O)[C@]1(C)O
Susceptibility of strain to antibiotic: R

Kindly review the next molecule as well.
In: Entry NCC[C@H](O)C(=O)N[C@@H]1C[C@H](N)[C@@H](O[C@H]2O[C@H](CN)[C@@H](O)[C@H](O)[C@H]2O)[C@H](O)[C@H]1O[C@H]1O[C@H](CO)[C@@H](O)[C@H](N)[C@H]1O : reported Susceptibility of strain to antibiotic = ?
Out: S
